# ASSAY REMARKS: human plasma protein binding (PPB) assay
# Assay type: in vitro ADME
# EXPERIMENTAL SETUP: average, read-out: Human Plasma Protein Binding % Bound Avg (converted)
Mark t only when fraction unbound stays strictly below 0.003. Values equal to the cut-off are f.

Example cases with answers are listed next.
                                   compound  answer_label
0  CS(=O)(=O)c1ccc(-c2nc(OCc3cccs3)cc3ccoc23)cc1 [Compound 5]             t
1  CS(=O)(=O)c1ccc(-c2cccc(/C=C\c3ccoc3)n2)cc1 [Compound 35]             f
2  CS(=O)(=O)c1ccc(-c2cccc(NCc3ccco3)n2)cc1 [Compound 36]             f

fraction unbound under 0.003? Item: CS(=O)(=O)c1ccc(-c2nc(NCc3ccoc3)ccc2F)cc1 [Compound 48]
f
